test system: Escherichia coli TOP10; experiment: shrunken log2 fold change of peptide-encoding DNA abundance (4.5 h post-induction vs induction); higher = less antimicrobial activity (less host growth inhibition); details: time post-induction: 4.5 h; library: site-saturation at positions 5, 18, 19, 20;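 also: peptides expressed intracellularly from a pBAD plasmid library in pooled LB shake-flask culture, induced with 0.3% L-arabinose, DNA abundance read by NGS, three biological replicates, DESeq2 with apeglm shrinkage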
Provide the recorded shrunken log2 fold change for the entries that follow.
Give bare numbers.

Field: example entries. Status: answers known.
RRIRYRPPRLPRPRPRPVVMPRP
0.00213
RRIRGRPPRLPRPRPRPYYTPRP
1.19
RRIRGRPPRLPRPRPRPQVHPRP
0.231
RRIRKRPPRLPRPRPRPHGPPRP
0.0129
RRIRDRPPRLPRPRPRPQCEPRP
0.0364

Items follow; give shrunken log2 fold change for each.
1. RRIRKRPPRLPRPRPRPDIRPRP
2. RRIRTRPPRLPRPRPRPCDPPRP
3. RRIRFRPPRLPRPRPRPIFYPRP
4. RRIRMRPPRLPRPRPRPDRMPRP

## Result
[0.0731, -0.072, -0.0962, 0.422]

Items follow; give shrunken log2 fold change for each.
1. RRIRARPPRLPRPRPRPIPIPRP
2. RRIRIRPPRLPRPRPRPCWRPRP
3. RRIRMRPPRLPRPRPRPRGHPRP
4. RRIRVRPPRLPRPRPRPCFFPRP
5. RRIRERPPRLPRPRPRPPNWPRP
6. RRIRNRPPRLPRPRPRPSSNPRP

## Result
1: 0.354; 2: 0.157; 3: 1.33; 4: -0.137; 5: 0.368; 6: -0.416
